molecular target: B-RAF G466V (Homo sapiens, UniProt P15056, G466V); construct: expressed in transfected cells; host or cells: T-Rex 293 cells (Invitrogen #R71007); experiment: Target protein degradation, assay D: T-Rex 293 cells, HA-BRAF_G466V, 384 well format; assay type: cell-based; conditions: Assay D, T-Rex 293 HA-BRAF_G466V cells, 24 hours, Examples 83-269
Sequence (P15056 whole entry G466V): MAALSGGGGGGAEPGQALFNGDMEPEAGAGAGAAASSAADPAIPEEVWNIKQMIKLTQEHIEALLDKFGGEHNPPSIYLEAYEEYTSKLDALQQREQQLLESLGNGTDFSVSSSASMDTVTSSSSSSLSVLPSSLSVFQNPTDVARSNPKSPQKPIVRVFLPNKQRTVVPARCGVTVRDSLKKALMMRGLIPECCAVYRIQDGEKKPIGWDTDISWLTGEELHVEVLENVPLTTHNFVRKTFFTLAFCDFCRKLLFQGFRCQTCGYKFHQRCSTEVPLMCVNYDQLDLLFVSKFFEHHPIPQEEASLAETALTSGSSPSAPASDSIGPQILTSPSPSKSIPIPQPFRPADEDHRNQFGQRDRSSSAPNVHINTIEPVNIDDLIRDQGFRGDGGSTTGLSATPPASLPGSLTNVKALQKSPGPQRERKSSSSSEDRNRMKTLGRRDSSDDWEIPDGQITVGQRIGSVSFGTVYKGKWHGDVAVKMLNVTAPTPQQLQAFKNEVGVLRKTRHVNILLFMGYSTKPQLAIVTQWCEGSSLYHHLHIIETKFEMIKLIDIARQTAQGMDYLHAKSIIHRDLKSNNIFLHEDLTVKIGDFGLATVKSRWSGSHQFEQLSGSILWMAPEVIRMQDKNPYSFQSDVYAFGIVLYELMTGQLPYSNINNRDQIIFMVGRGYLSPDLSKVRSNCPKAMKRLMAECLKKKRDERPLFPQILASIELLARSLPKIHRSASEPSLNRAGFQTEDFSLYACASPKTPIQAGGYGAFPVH
For each record, write down the corresponding DC50.

Give the reported DC50 for this compound. `CN(c1ccc(-n2cnc3ccc(Oc4c(F)ccc(NS(=O)(=O)N5CC[C@@H](F)C5)c4C#N)cc3c2=O)cc1)[C@H]1CC[C@@H](N2CCN(c3ccc4c(c3)CN([C@H]3CCC(=O)NC3=O)C4=O)CC2)CC1`
0.01 to 0.03 µM

Give the reported DC50 for this compound. N#Cc1c(NS(=O)(=O)N2CC[C@@H](F)C2)ccc(F)c1Oc1ccc2ncn(-c3ccc(N4CCC(CN5CC6(CCN(c7ccc8c(c7)CN([C@H]7CCC(=O)NC7=O)C8=O)CC6)C5)C4)cc3)c(=O)c2c1 (some centres unmarked)
0.01 to 0.03 µM

# batch: return DC50 for each of the 2 compounds below
1. N#Cc1c(NS(=O)(=O)N2CC[C@@H](F)C2)ccc(F)c1Oc1ccc2ncn(-c3cnc(N4CCC(C5CN(c6ccc7c(c6)C(=O)N(C6CCC(=O)NC6=O)C7=O)C5)CC4)nc3)c(=O)c2c1 (some centres unmarked)
2. N#Cc1c(NS(=O)(=O)N2CC[C@@H](F)C2)ccc(F)c1Oc1ccc2ncn(-c3cccc(C4CCN(CC5CCN(c6ccc7c(c6)CN([C@H]6CCC(=O)NC6=O)C7=O)CC5)C4)c3)c(=O)c2c1 (single isomer, unassigned) [Example 257]

1: 0.001 to 0.01 µM; 2: 0.001 to 0.01 µM

Give the reported DC50 for this compound. `CN(c1ccc2c(c1)CN([C@H]1CCC(=O)NC1=O)C2=O)[C@H]1CC[C@@H](N2CCN(c3ccc(-n4cnc5ccc(Oc6c(F)ccc(NS(=O)(=O)N7CC[C@@H](F)C7)c6C#N)cc5c4=O)cc3)CC2)CC1`
0.001 to 0.01 µM

----------
For each record, write down the corresponding Dmax.
target: B-RAF G466V (Homo sapiens, UniProt P15056, G466V); construct: expressed in transfected cells; host or cells: T-Rex 293 cells (Invitrogen #R71007); test: Target protein degradation, assay D: T-Rex 293 cells, HA-BRAF_G466V, 384 well format; assay type: cell-based; conditions: T-REx-293, Assay D, T-Rex 293 HA-BRAF_G466V cells, 24 hours, Examples 83-269

Known results for molecules:
// fetch Dmax; item: N#Cc1c(NS(=O)(=O)N2CC[C@@H](F)C2)ccc(F)c1Oc1ccc2ncn(-c3ccc(C4CCN(CC5CC6(CCN(c7ccc8c(c7)CN([C@H]7CCC(=O)NC7=O)C8=O)CC6)C5)C4)cc3)c(=O)c2c1 (stereo partly drawn) ; system: B-RAF G466V (Homo sapiens, UniProt P15056, G466V)
≥ 70%

// fetch Dmax; item: N#Cc1c(NS(=O)(=O)N2CC[C@@H](F)C2)ccc(F)c1Oc1ccc2ncn(-c3ccc(N4CCC(CN5CCN(CC6CCN(c7ccc8c(c7)C(=O)N(C7CCC(=O)NC7=O)C8=O)CC6)CC5)CC4)nc3)c(=O)c2c1 (stereo partly drawn) ; system: B-RAF G466V (Homo sapiens, UniProt P15056, G466V)
35 to 70%

// fetch Dmax; item: N#Cc1c(NS(=O)(=O)N2CC[C@@H](F)C2)ccc(F)c1Oc1ccc2ncn(-c3ccc(N4CCC(CN5CCC(Oc6cccc7c6C(=O)N(C6CCC(=O)NC6=O)C7=O)CC5)CC4)nc3)c(=O)c2c1 (stereo partly drawn) ; system: B-RAF G466V (Homo sapiens, UniProt P15056, G466V)
≤ 35%

// fetch Dmax; item: N#Cc1c(NS(=O)(=O)N2CC[C@@H](F)C2)ccc(F)c1Oc1ccc2ncn(-c3ccc(N4CCC(CN5CCC(c6ccc7c(c6)CN([C@H]6CCC(=O)NC6=O)C7=O)CC5)C4)cc3)c(=O)c2c1 (stereo partly drawn) ; system: B-RAF G466V (Homo sapiens, UniProt P15056, G466V)
35 to 70%

// fetch Dmax; item: N#Cc1c(NS(=O)(=O)N2CC[C@@H](F)C2)ccc(F)c1Oc1ccc2ncn(-c3cnc(N4CC5(CN(CC6CCN(c7ccc8c(c7)C(=O)N(C7CCC(=O)NC7=O)C8=O)CC6)C5)C4)nc3)c(=O)c2c1 (stereo partly drawn) ; system: B-RAF G466V (Homo sapiens, UniProt P15056, G466V)
35 to 70%

// fetch Dmax; item: N#Cc1c(NS(=O)(=O)N2CC[C@@H](F)C2)ccc(F)c1Oc1ccc2ncn(-c3ccc(N4CCN(CC5CCN(c6ccc7c(c6)CN(C6CCC(=O)NC6=O)C7=O)CC5)CC4)nn3)c(=O)c2c1 (stereo partly drawn) ; system: B-RAF G466V (Homo sapiens, UniProt P15056, G466V)
≤ 35%

// fetch Dmax; item: N#Cc1c(NS(=O)(=O)N2CC[C@@H](F)C2)ccc(F)c1Oc1ccc2ncn(-c3ccc(N4CCC(CCCN5CCN(c6ccc7c(c6)C(=O)N(C6CCC(=O)NC6=O)C7=O)CC5)CC4)nc3)c(=O)c2c1 (stereo partly drawn) ; system: B-RAF G466V (Homo sapiens, UniProt P15056, G466V)
≤ 35%

// fetch Dmax; item: `N#Cc1c(NS(=O)(=O)N2CC[C@@H](F)C2)ccc(F)c1Oc1ccc2ncn(-c3ccc(N4CCC(CN5CCC6(CC5)CCN(c5ccc7c(c5)CN([C@H]5CCC(=O)NC5=O)C7=O)CC6)CC4)cc3)c(=O)c2c1` ; system: B-RAF G466V (Homo sapiens, UniProt P15056, G466V)
35 to 70%

// fetch Dmax; item: `Cc1cc(N2CC(CN3CCN(c4ccc(-n5cnc6ccc(Oc7c(F)ccc(NS(=O)(=O)N8CC[C@@H](F)C8)c7C#N)cc6c5=O)cc4)CC3)C2)cc2c1C(=O)N([C@@H]1CCC(=O)NC1=O)C2` ; system: B-RAF G466V (Homo sapiens, UniProt P15056, G466V)
35 to 70%

// fetch Dmax; item: O=C1CCC(N2Cc3cc(N4CCC(CN5CCN(c6ccc(-n7cnc8ccc(Oc9c(F)ccc(NS(=O)(=O)N%10CC[C@@H](F)C%10)c9Cl)cc8c7=O)cc6)CC5)CC4)ccc3C2=O)C(=O)N1 (stereo partly drawn) ; system: B-RAF G466V (Homo sapiens, UniProt P15056, G466V)
35 to 70%

# batch: return Dmax for each of the 2 molecules below
1. Cc1c(NS(=O)(=O)N2CC[C@@H](F)C2)ccc(F)c1Oc1ccc2ncn(-c3ccc(N4CCN(CC5CCN(c6ccc7c(c6)CN(C6CCC(=O)NC6=O)C7=O)CC5)CC4)cc3)c(=O)c2c1 (stereo partly drawn)
2. N#Cc1c(NS(=O)(=O)N2CC[C@@H](F)C2)ccc(F)c1Oc1ccc2ncn(-c3ccc(N4CCC(CN5CC(c6ccc7c(c6)CN(C6CCC(=O)NC6=O)C7=O)C5)CC4)cc3)c(=O)c2c1 (stereo partly drawn)

1. 35 to 70%
2. 35 to 70%
